meta.source: PubChem BioAssay (NCI)

Reported growth is given for each of the following compounds.
# Tested on: UACC-257 melanoma
# TEST DESCRIPTION: NCI-60 one-dose screen, 48 h (100 = growth as untreated, 0 = no growth, -100 = all killed)
# SETUP CONDITIONS: 10 µM unless noted
# Procedure: Cells are grown in 96 well plates and exposed to the test compound for 48 hours. Compounds are tested at a single concentration, which is 10^-5 M for most compounds. The reported endpoint is percent growth (GI% or GIPRCNT), where numbers from 0 - 100% represent growth inhibition, and numbers from -100% - 0 represent cell death. For example, a value of 40 represents 60% growth inhibition. A value of 0 means no net growth occurred over the course of the experiment. […]
About 83,000 compounds went through this panel and 20% of them were active in at least one assay; those are over-represented in the sample as a whole. Activity calls are given as the source filed them. Rule for the calls: active = growth percent below 10; inactive = the rest.

COc1cc(-c2nc(Nc3nc4ccccc4[nH]3)nc(N)c2C#N)cc(OC)c1OC; 69.5% (inactive)
O=C(COc1ccc(/C=C2\CSc3ccccc3C2=O)cc1)c1ccc(Cl)cc1; 121% (inactive)
O=c1[nH]c(=O)n(Cc2ccc(F)cc2)cc1F; 83.9% [50 µM] (inactive)

## Task Notebook entry, UACC-257 melanoma assay: growth of `O=C(COc1cccc(/C=C2\COc3ccccc3C2=O)c1)c1ccccc1` = ?
## Result 72.9% (inactive)
